For each entry below, report its viability value.
Assay: drug combination growth inhibition, ovarian cancer – cell-based, oncology-focused library, rucaparib conditional, profiling panel (AID 1508598)
Conditions: patient-derived ovarian cancer cells, CellTiter-Glo viability, 144 h; at 0.00488 µM; OCI-P5x cells; with rucaparib 20 µM; stronger effect = lower value; 100% = cells with rucaparib alone
One number for each entry, in %.

INSERT INTO results (compound_structure, assay_value) VALUES
  ('CC(C)c1cc(-c2n[nH]c(=O)n2-c2ccc3c(ccn3C)c2)c(O)cc1O', 126),
  ('Cc1ccc(C(=O)N(CCCN)[C@@H](c2oc3cc(Cl)ccc3c(=O)c2Cc2ccccc2)C(C)C)cc1', 58.3);

Return reported viability values for all items listed beneath this line.
1. C=CC(=O)N1CCC[C@@H](n2nc(-c3ccc(Oc4ccccc4)cc3)c3c(N)ncnc32)C1
2. CC(=O)Nc1cccc(-n2c(=O)n(C3CC3)c(=O)c3c(Nc4ccc(I)cc4F)n(C)c(=O)c(C)c32)c1
3. Cc1csc(-c2nnc(Nc3ccc(Oc4ncccc4-c4ccnc(N)n4)cc3)c3ccccc23)c1

1. 95.6
2. 75
3. 113

Return reported viability values for all items listed beneath this line.
1. Cc1ccc(NC(=O)c2cccc(C(C)(C)C#N)c2)cc1Nc1ccc2ncn(C)c(=O)c2c1
2. CN(C)N=Nc1nc[nH]c1C(N)=O
3. C=CC(=O)Nc1cc(Nc2nccc(-c3cn(C)c4ccccc34)n2)c(OC)cc1N(C)CCN(C)C
4. CC(C)c1ccccc1Cc1cc(C(=O)Nc2ccc(S(=O)(=O)c3ccccc3C(C)(C)C)cc2)c(O)c(O)c1O

1: 107; 2: 106; 3: 103; 4: 117

* * *

Assay: growth inhibition of DIPG cells – cell-based, MIPE4.0 library, CellTiter-Glo luminescence, qHTS (AID 1347066);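 further: cells exposed to compound for 48 hours before readout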
Conditions: SU-DIPG-VI viability, CellTiter-Glo ATP luminescence
Inconclusive results are not listed. Calls of active or inactive are those of the source. Cut-off not given; nearly all actives show AC50 up to about 30 µM.
Your answer must be one of the following: y = active, n = inactive

Known results for compounds:
INSERT INTO results (compound, discrete_label) VALUES
  ('COCCOc1nc(-c2ccc(Cl)c(Cl)c2)n(-c2ccc(NC(=O)CCl)cc2)n1', 'n'),
  ('COc1ccc(-n2c(C)c([N+](=O)[O-])c3ccc(O)cc32)cc1', 'n'),
  ('O=C(O)CO.[NH2-].[NH2-].[Pt+2]', 'n'),
  ('Cc1nc(Nc2n[nH]c3c2CN(C(=O)N[C@H](CN(C)C)c2ccccc2)C3(C)C)c2sccc2n1', 'y'),
  ('C=CC(=O)N1CCC[C@@H](n2nc(-c3ccc(Oc4ccccc4)cc3)c3c(N)ncnc32)C1', 'y');

// outcome(item) with item = NC(=O)N1CCC(CC(=O)N2CCC([C@H]3c4ncc(Br)cc4CCc4cc(Cl)cc(Br)c43)CC2)CC1
y

// outcome(item) with item = Cn1c(Nc2ccc(C(F)(F)F)cc2)nc2cc(Oc3ccnc(-c4ncc(C(F)(F)F)[nH]4)c3)ccc21
y

// outcome(item) with item = CN1c2ccccc2C(=O)N2CCc3c([nH]c4ccccc34)C21 (configuration not stated)
n

// outcome(item) with item = C=CC(=O)Nc1cc2c(Nc3ccc(F)c(Cl)c3)ncnc2cc1C#CC(C)(C)N1CCN(C)CC1
y
